Quick reference for Polarity (interfacial tension towards water) among some compounds
experiment: Polarity: interfacial tension towards water; type: physicochemical; conditions: moderately polar lipids, between about 20 and about 30 mN/m
Just the number in mN/m, nothing appended.

>  <compound>
CCCCCCCCCCCCCCCCCC(=O)OC(C)C [Isopropyl stearate]

>  <unitString>
mN/m

>  <measValue>
21.9

$$$$
>  <compound>
CCCCCCOCCCCCC [Dihexyl ether]

>  <unitString>
mN/m

>  <measValue>
29.2

$$$$
>  <compound>
CCCCC(CC)C(=O)OCCC(C)CC(C)(C)C (centres unmarked) [Dermol 98]

>  <unitString>
mN/m

>  <measValue>
26.2

$$$$

Endpoint output: Polarity (interfacial tension towards water) of CCCCCCC(CCCC)C(=O)O (centres unmarked) [Isocarb 12, Butyl octanoic acid] . Value?
22.1

Endpoint output: Polarity (interfacial tension towards water) of CCCCCCCC(=O)OCC(COC(=O)CCCCCCC)OC(=O)CCCCCCC [Trivent OCG, Tricaprylin] . Value?
20.2

Endpoint output: Polarity (interfacial tension towards water) of CCCCCCCCCCC(CO)CCCCCCCC (centres unmarked) [Eutanol G, Octyldodecanol] . Value?
24.8

Endpoint output: Polarity (interfacial tension towards water) of CC(C)CCCCCCCOC(=O)CC(C)CC(C)(C)C (centres unmarked) [Dermol 109, Isodecyl 3,5,5-trimethyl hexanoate] . Value?
29.1
